Biological target: αllbβ3 receptor (Homo sapiens, UniProt P05106+P08514)
Sequence (P08514 32-1039): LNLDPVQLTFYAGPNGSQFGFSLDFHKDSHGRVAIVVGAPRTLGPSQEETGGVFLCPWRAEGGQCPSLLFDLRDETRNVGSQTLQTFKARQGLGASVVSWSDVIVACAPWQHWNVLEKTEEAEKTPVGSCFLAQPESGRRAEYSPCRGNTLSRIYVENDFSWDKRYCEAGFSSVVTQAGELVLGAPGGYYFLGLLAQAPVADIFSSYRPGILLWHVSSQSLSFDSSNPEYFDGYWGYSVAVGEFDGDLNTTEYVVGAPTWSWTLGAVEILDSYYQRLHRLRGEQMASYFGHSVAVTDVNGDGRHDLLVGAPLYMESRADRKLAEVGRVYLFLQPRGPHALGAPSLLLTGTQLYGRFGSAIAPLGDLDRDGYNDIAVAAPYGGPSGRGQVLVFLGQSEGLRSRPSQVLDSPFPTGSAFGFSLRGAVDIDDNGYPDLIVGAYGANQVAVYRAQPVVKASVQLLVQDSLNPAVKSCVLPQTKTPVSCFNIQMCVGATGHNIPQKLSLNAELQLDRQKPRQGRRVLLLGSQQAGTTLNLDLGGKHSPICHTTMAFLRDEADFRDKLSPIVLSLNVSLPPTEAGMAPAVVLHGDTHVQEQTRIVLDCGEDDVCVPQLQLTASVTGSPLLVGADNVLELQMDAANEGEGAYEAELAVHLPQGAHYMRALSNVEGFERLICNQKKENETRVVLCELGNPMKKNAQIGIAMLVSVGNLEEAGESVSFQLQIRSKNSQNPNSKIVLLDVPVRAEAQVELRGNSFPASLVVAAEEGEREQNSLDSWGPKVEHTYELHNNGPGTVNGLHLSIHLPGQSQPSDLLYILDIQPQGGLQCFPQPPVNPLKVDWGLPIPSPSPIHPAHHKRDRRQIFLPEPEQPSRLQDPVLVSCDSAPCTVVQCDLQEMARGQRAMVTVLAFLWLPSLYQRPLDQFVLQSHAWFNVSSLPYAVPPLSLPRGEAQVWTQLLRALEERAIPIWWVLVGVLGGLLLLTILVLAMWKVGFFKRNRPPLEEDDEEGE
Sequence (P05106 27-788): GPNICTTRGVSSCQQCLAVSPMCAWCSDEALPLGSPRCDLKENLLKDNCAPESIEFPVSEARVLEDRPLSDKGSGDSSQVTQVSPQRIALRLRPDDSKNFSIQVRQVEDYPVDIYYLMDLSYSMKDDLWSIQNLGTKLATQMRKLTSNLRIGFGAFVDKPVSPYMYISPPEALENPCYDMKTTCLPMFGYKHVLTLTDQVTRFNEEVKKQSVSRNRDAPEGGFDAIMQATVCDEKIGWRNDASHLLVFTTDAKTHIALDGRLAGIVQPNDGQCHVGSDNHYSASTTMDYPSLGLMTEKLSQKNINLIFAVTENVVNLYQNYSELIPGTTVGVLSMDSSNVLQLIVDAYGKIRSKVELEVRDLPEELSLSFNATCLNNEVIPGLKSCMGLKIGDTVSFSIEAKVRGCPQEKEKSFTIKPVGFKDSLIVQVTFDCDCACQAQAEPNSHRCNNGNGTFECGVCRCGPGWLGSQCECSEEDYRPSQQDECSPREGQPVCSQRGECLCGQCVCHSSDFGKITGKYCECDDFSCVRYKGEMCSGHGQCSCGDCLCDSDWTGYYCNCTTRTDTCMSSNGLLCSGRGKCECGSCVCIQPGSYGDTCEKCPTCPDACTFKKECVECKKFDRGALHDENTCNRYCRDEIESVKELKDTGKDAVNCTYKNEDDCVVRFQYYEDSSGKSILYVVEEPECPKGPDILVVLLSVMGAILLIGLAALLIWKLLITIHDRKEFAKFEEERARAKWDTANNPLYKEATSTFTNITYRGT
Test: similar competitive assay with purified αllbβ3 receptor and 125I-echistatin (specificity index versus αvβ3)
Assay type: binding
Settings: IC50 αllbβ3 / IC50 αvβ3
Binarize SPECIFICITY αIIb β3/αvβ3 (specificity index) at 500; below is 1.0, at or above is 0.0.

Consider the worked cases shown below.
- COMPOUND: "O=C(N[C@@H](CNC(=O)c1ccc(CN(Cc2nc3ccccc3[nH]2)C(=O)Nc2ccc(Cl)cc2)cc1)C(=O)O)OCc1ccccc1 [Example 5-35]"
  LABEL: 1.0
- COMPOUND: "CCOC(=O)[C@H](CC(C)C)NC(=O)N(Cc1ccc(C(=O)NC[C@H](NC(=O)OCc2ccccc2)C(=O)O)cc1)Cc1nc2ccccc2[nH]1 [Example 5-53]"
  LABEL: 1.0

Problem: SPECIFICITY αIIb β3/αvβ3 (specificity index) under 500? Item: O=C(N[C@@H](CNC(=O)c1ccc(CN(Cc2nc3ccccc3[nH]2)C(=O)CCc2ccccc2)cc1)C(=O)O)OCc1ccccc1 [Example 5-16]
Result: 0.0

Problem: Please check: SPECIFICITY αIIb β3/αvβ3 (specificity index) for Cn1c(CN(Cc2ccc(C(=O)NC[C@H](NC(=O)OCc3ccccc3)C(=O)O)cc2)C(=O)NC2CCCCC2)nc2ccccc21 [Example 5-92] , strictly under 500 or not?
Result: 1.0

Problem: Take the compound O=C(N[C@@H](CNC(=O)c1ccc(CN(Cc2nc3ccccc3[nH]2)C(=O)NS(=O)(=O)c2ccc(Cl)cc2)cc1)C(=O)O)OCc1ccccc1 [Example 5-44] and say whether its SPECIFICITY αIIb β3/αvβ3 (specificity index) is less than 500.
Result: 1.0

Problem: Strictly below 500: is that where SPECIFICITY αIIb β3/αvβ3 (specificity index) of CC(NCc1ccc(C(=O)NC[C@H](NC(=O)OCc2ccccc2)C(=O)O)cc1)c1nc2ccccc2[nH]1 (stereo partly shown) [Example 5-75] sits?
Result: 1.0

Problem: SPECIFICITY αIIb β3/αvβ3 (specificity index) under 500? Item: CCOC(=O)N(Cc1ccc(C(=O)NC[C@H](NC(=O)OCc2ccccc2)C(=O)O)cc1)Cc1nc2ccccc2[nH]1 [Example 5-20]
Result: 1.0

Problem: Identify whether the compound CCOC(=O)CCNC(=O)N(Cc1ccc(C(=O)NC[C@H](NC(=O)OCc2ccccc2)C(=O)O)cc1)Cc1nc2ccccc2[nH]1 [Example 5-54] records SPECIFICITY αIIb β3/αvβ3 (specificity index) below 500.
Result: 1.0

Problem: Below 500 on SPECIFICITY αIIb β3/αvβ3 (specificity index)? Entry CC(=O)N(Cc1ccc(C(=O)NC(CC(=O)O)c2ccccc2)cc1)Cc1nc2ccccc2[nH]1 (stereo not shown) [Example 5-66]
Result: 1.0

Problem: # strict comparison: is reported SPECIFICITY αIIb β3/αvβ3 (specificity index) < 500? input = CCCCOC(=O)N[C@@H](CNC(=O)c1ccc(CN(Cc2nc3ccccc3[nH]2)C(=O)N[C@H](C(=O)OCC)C(C)C)cc1)C(=O)O [Example 5-90]
Result: 0.0

Problem: Bench note: check whether CCCCOC(=O)N[C@@H](CNC(=O)c1ccc(CN(Cc2nc3ccccc3[nH]2)C(=O)Nc2ccccc2)cc1)C(=O)O [Example 5-83] shows SPECIFICITY αIIb β3/αvβ3 (specificity index) below 500
Result: 0.0

Problem: API: query returns whether the compound falls strictly under 500 in SPECIFICITY αIIb β3/αvβ3 (specificity index). Query: COc1ccc(NC(=S)N(Cc2ccc(C(=O)NC[C@H](NC(=O)OCc3ccccc3)C(=O)O)cc2)Cc2nc3ccccc3[nH]2)cc1 [Example 5-46]
Result: 0.0

Problem: Quick check: SPECIFICITY αIIb β3/αvβ3 (specificity index) of O=C(N[C@@H](CNC(=O)c1ccc(CN(Cc2nc3ccccc3[nH]2)C(=O)Nc2ccccc2)cc1)C(=O)O)OCc1ccccc1 [Example 5-27] under 500?
Result: 1.0

Problem: Is the reported SPECIFICITY αIIb β3/αvβ3 (specificity index) for CSCC(=O)N(Cc1ccc(C(=O)NC[C@H](NC(=O)OCc2ccccc2)C(=O)O)cc1)Cc1nc2ccccc2[nH]1 [Example 5-23] strictly below 500?
Result: 1.0
